Target: natural suppressor cells (Mus musculus)
Construct: cAMP accumulation
Sequence (P97292 whole entry): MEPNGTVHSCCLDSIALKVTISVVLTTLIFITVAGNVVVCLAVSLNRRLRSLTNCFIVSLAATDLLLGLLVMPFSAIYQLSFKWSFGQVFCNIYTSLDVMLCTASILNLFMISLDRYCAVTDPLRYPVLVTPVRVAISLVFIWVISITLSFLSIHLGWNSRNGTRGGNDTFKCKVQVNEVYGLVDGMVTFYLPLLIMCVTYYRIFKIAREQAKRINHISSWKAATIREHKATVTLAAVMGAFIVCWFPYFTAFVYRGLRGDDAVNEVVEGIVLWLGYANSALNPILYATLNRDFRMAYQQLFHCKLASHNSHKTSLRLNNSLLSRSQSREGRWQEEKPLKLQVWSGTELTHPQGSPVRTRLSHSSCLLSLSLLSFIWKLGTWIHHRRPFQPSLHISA
Test: Blocking histamine effects in natural suppressor cells (H2 antagonism)
Settings: lymphoid cells; read-out: Inhibition constant
QUANTITY NAME: Ki

Q: Return reported Ki; argument: CN/C(=N/CCSCc1nc[nH]c1C)NC#N [Cimetidine, reference compound]
A: 110 to 430 nM

* * *

Target: guinea pig myocardial adenylate cyclase (Cavia porcellus, UniProt P47747)
Construct: histamine-stimulated adenylate cyclase with GPP(NH)P
Sequence (P47747 whole entry): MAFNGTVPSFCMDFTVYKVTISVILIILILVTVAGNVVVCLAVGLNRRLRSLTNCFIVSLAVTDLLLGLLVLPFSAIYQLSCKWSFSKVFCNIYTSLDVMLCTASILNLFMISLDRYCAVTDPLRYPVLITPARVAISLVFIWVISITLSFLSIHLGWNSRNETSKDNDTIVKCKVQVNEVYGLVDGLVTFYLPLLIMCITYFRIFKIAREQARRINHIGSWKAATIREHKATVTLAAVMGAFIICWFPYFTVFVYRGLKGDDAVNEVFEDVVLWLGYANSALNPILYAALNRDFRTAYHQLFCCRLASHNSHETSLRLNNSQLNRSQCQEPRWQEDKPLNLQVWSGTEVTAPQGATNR
Test: Guinea pig myocardial adenylate cyclase assay
Assay type: biochemical
Conditions: adenylate cyclase
QUANTITY NAME: Activity on guinea pig myocardium (in words)

| MOLECULE | RESULT |
| --- | --- |
| CCCCCC(C)NCCc1c[nH]cn1 (centres unmarked) | completely inactive |
| CCCCCC(=O)NCCc1c[nH]cn1 | completely inactive |
